# measured.on: CMV Polymerase (Human cytomegalovirus)
# Construct: made in house; host or cells: recombinant baculovirus-infected SF-9 cells
# Sequence (P08546 whole entry): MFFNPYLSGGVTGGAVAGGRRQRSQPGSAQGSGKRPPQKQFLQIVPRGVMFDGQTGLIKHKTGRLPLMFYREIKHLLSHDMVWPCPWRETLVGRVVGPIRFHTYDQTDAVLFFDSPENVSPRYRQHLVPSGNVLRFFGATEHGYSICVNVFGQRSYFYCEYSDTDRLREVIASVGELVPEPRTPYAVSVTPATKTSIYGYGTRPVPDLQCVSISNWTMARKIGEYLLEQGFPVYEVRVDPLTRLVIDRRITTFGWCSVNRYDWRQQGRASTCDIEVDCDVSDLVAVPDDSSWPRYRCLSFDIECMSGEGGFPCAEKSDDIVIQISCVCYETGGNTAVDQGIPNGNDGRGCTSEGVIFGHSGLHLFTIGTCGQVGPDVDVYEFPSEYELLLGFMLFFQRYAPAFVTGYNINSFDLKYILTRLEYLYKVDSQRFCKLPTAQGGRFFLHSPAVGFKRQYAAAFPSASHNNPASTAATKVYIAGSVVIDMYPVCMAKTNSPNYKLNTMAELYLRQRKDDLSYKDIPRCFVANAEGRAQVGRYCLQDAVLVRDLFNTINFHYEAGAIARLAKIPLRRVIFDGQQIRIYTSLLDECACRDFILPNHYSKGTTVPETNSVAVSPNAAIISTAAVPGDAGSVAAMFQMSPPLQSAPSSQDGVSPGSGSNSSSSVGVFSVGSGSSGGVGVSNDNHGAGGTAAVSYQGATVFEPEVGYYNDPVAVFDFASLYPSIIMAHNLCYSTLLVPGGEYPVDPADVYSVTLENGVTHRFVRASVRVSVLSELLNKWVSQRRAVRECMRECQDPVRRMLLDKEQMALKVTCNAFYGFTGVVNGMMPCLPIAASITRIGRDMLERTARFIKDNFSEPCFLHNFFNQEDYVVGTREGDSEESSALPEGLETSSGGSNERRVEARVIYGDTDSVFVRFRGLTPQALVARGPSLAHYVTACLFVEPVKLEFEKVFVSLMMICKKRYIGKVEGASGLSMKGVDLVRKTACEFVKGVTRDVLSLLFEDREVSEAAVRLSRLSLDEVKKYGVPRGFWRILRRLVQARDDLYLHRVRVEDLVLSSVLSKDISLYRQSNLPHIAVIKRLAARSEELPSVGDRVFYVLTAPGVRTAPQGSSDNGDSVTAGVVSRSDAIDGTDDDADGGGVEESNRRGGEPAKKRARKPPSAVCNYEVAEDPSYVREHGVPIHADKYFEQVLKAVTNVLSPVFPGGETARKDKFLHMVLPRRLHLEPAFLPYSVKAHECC
# run.description: HCMV polymerase scintillation proximity assay (modified version)
# Assay type: biochemical
# stated.conditions: modified SPA assay; compounds diluted in 100% DMSO; 4.5 mM DTT
recorded.endpoint: IC50 (nM)

>>> test_value("O=C(NCc1ccc(Cl)cc1)c1cn2c(CN3CCS(=O)(=O)CC3)cc3cc(CN4CCOCC4)cc(c1=O)c32")
360
>>> test_value("COCc1cc2cc(CN3CCOCC3)cc3c(=O)c(C(=O)NCc4ccc(Cl)cc4)cn1c23")
540
>>> test_value("CN1CCN(CCc2cc3cc(CN4CCOCC4)cc4c(=O)c(C(=O)NCc5ccc(Cl)cc5)cn2c34)CC1")
1760
>>> test_value("CNCc1cc2cc(CN3CCOCC3)cc3c(=O)c(C(=O)NCc4ccc(Cl)cc4)cn1c23")
490
>>> test_value("CCC1CCCCN1CCc1cc2cc(CN3CCOCC3)cc3c(=O)c(C(=O)NCc4ccc(Cl)cc4)cn1c23 (stereo not shown)")
1920
>>> test_value("CN(C)Cc1cc2cc(CN3CCOCC3)cc3c(=O)c(C(=O)NCc4ccc(Cl)cc4)cn1c23")
620
>>> test_value("O=C(NCc1ccc(Cl)cc1)c1cn2c(CCO)cc3cccc(c1=O)c32")
1200
>>> test_value("CCN(CC)CCc1cc2cc(CN3CCOCC3)cc3c(=O)c(C(=O)NCc4ccc(Cl)cc4)cn1c23")
2430
>>> test_value("O=C(NCc1ccc(Cl)cc1)c1cn2c(CCO)cc3cc(CC4CCOCC4)cc(c1=O)c32")
130
>>> test_value("C[C@@H](O)c1cc2cc(CN3CCOCC3)cc3c(=O)c(C(=O)NCc4ccc(Cl)cc4)cn1c23")
260

I. O=C(NCc1ccc(Cl)cc1)c1cn2c(CCCN3CCOCC3)cc3cc(CN4CCOCC4)cc(c1=O)c32
II. O=C(NCc1ccc(Cl)cc1)c1cn2c(CO)cc3cc(CC4CCOCC4)cc(c1=O)c32
III. O=C(NCc1ccc(Cl)cc1)c1cn2c(CSc3ccccc3)cc3cc(CN4CCOCC4)cc(c1=O)c32
Hey, can you sort those compounds up there by IC50, smallest first? Response field: labels, in requested order.
II, III, I

1. O=C(NCc1ccc(Cl)cc1)c1cn2c(CCN3CCCCC3)cc3cc(CN4CCOCC4)cc(c1=O)c32
2. O=C(NCc1ccc(Cl)cc1)c1cn2c(CO)cc3cc(CN4CCOCC4)cc(c1=O)c32
// compare: 1 vs 2 , metric IC50, want the smaller Indicate which entry you chose by stating its label.
2
(2: 530 nM, 1: 2300 nM)

###

# measured.on: VZV Polymerase (Varicella-zoster virus)
# Sequence (P09252 whole entry): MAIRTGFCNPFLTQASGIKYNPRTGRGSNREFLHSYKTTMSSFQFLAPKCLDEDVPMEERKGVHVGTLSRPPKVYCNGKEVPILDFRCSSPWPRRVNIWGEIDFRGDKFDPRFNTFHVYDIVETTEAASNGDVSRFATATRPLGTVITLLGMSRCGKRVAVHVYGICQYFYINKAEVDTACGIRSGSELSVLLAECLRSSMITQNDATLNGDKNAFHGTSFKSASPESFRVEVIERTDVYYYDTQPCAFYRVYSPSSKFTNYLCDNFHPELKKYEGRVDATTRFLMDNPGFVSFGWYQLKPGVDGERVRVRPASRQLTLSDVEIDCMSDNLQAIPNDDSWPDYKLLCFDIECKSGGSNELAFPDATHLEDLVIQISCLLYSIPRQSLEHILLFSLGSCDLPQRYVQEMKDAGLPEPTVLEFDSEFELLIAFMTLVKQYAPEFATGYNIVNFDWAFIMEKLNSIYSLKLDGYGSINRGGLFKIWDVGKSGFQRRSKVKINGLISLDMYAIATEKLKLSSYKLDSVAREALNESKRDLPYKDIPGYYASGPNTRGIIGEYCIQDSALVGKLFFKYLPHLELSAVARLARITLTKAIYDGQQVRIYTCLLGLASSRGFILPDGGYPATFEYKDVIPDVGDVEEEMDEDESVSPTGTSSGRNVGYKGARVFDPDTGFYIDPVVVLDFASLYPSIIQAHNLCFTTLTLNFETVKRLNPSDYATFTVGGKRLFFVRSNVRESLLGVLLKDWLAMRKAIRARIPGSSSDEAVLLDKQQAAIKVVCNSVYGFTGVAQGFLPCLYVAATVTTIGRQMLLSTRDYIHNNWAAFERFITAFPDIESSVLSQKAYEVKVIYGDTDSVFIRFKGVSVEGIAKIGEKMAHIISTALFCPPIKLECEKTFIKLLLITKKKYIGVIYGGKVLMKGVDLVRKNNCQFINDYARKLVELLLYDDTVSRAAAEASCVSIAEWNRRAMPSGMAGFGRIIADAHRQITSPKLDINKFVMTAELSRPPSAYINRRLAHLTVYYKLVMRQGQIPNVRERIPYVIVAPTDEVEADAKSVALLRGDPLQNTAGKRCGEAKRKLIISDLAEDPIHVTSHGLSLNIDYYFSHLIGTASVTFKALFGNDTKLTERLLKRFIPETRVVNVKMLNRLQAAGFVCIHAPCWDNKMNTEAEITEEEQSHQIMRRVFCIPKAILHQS
# run.description: VZV polymerase assay
# Type: biochemical
recorded.endpoint: IC50 (nM)

A. O=C(NCc1ccc(Cl)cc1)c1cn2c(CO)cc3cc(CN4CCOCC4)cc(c1=O)c32 [Example 3]
B. O=C(NCc1ccc(Cl)cc1)c1cn2c(CCO)cc3cc(CC4CCOCC4)cc(c1=O)c32 [Example 23]
C. O=C(NCc1ccc(Cl)cc1)c1cn2c(CO)cc3cc(CC4CCOCC4)cc(c1=O)c32 [Example 2]
Sort ascending by IC50. Response field: labels, in requested order.
B, C, A
(B: 100 nM, C: 160 nM, A: 250 nM)
